biological target: Signal transducer and activator of transcription 3 (Homo sapiens) (UniProt P40763); assay: small molecules binding His-tagged STAT3 – biochemical, small molecule microarray, single point, set 2, primary screen (AID 624138); conditions: anti-His fluorescence
Sequence (P40763 whole entry, looked up): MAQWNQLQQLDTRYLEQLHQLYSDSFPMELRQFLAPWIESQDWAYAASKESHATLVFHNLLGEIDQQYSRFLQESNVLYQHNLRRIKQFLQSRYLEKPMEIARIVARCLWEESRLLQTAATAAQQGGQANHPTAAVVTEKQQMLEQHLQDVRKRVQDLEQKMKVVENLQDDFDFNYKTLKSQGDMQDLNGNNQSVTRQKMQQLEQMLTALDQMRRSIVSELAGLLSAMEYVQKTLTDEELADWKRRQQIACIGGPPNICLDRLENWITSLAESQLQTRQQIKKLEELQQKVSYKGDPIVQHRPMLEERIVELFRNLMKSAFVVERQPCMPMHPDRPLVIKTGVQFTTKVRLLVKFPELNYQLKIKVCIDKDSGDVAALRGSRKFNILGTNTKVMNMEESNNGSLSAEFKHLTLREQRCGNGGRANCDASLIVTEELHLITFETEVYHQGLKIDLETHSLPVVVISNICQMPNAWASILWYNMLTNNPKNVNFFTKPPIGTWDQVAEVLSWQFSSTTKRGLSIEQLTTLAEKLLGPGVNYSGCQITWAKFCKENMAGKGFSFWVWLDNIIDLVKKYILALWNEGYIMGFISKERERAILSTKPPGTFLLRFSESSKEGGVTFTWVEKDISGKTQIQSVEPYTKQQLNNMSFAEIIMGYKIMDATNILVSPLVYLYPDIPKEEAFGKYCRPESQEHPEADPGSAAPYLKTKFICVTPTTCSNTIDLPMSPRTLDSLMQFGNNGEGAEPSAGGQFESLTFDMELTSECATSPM
Out of some 17,000 compounds screened, about 35 (0.2%) were called active.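 Rule for the calls: active = compounds whose four printed spots each show fluorescence over background unusually high for their array block, chance value under 7%; inactive = the rest.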 Shown is part of a subset that was picked to be rich in actives.
Outcomes: y for active, n for inactive

{"Sample smiles": "CC(=O)c1c(O)c(C)c(O)c(Cc2c(O)c3c(c(C(=O)/C=C/c4ccccc4)c2O)OC(C)(C)C=C3)c1O", "Answer label": "n"}
{"Sample smiles": "COc1ccc2[nH]cc(CCNCc3ccc(Br)cc3)c2c1", "Answer label": "n"}
{"Sample smiles": "Cc1ccc(OC(=O)N(C)C[C@@H]2OCc3cnnn3CCCC(=O)N([C@H](C)CO)C[C@@H]2C)cc1", "Answer label": "n"}
{"Sample smiles": "c1cncc(CNCCc2c[nH]c3ccccc23)c1", "Answer label": "y"}
